Test system: SW-620
Assay: NCI tumour cell line growth inhibition, 48 h
The source made the active and inactive calls. Rule as the data show it: active = GI50 up to about 1.1 µM and inactive = higher.
Classes used: active, inactive

                                   compound  test_system  answer_label
0  COc1ccc(-c2cc(C3CC3)nc(SCC(=O)O)c2C#N)cc1       SW-620      inactive
1               N=C1C(=N)c2ccccc2-c2ccccc21       SW-620        active
2  CC(c1ccccc1)N1CCN(C(C)c2ccccc2)CC1 (stereo not given)       SW-620      inactive
3  Cc1ccc(NC(=O)CC(=O)N2N=C(N(c3ccccc3)c3ccccc3)CC2c2ccccc2)cc1 (stereo not given)       SW-620      inactive
4     CN(C)CCCNc1ccnc2cc([N+](=O)[O-])ccc12       SW-620      inactive
5  COc1cc(OC)c(-c2oc3ccccc3c(=O)c2O)c(OC)c1       SW-620      inactive
6    O=c1c(-c2ccccc2)c(O)nc2[nH]c3ccccc3n12       SW-620      inactive
7  COc1ccc(-c2[nH]c(-c3ccc(OC)cc3)c(-c3ccccn3)c2-c2ccccn2)cc1       SW-620      inactive
8  CC(=O)OCC1OC(Nc2ccc3nc(C)n(-c4cccc(C)c4)c(=O)c3c2)C(OC(C)=O)C(OC(C)=O)C1OC(C)=O (stereo not given)       SW-620      inactive
9  O=C(NC12CC3CC(CC(C3)C1)C2)C(=O)c1c[nH]c2ccc(Br)cc12       SW-620      inactive
